Where these numbers come from: patent US20250282799A1

Biological target: KRAS (G12V)/CRAF (Homo sapiens (Human), UniProt P01116, G12V)
Sequence (P01116-2 other isoform, or with tags, fused parts or gaps G12V): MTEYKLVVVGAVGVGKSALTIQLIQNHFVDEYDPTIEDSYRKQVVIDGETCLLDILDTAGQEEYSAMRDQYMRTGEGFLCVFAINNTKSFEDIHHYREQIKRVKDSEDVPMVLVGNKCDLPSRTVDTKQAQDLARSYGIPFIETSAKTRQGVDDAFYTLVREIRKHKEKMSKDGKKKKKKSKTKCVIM
Experiment: TR-FRET biochemical KRAS:CRAF protein:protein interaction assay, KRAS (G12V)
Conditions: GMPPNP loaded Biotin-KRAS (G12V), FLAG CRAF RBD; read-out: TR-Fret_PPI KRAS (G12V)/CRAF IC50
pIC50: −log10 of the molar value.
# label = true if pIC50 >= 7 else false

Tell me whether pIC50 is at least 7 here: [2H]C([2H])(Oc1nc(N2CCOC[C@@H]3[C@@H](Cl)[C@@H]32)c2cnc(-c3cc(N)cc4ccc(F)c(C#C)c34)c(F)c2n1)[C@@]12CCCN1[C@H](C)[C@H](F)C2 [Example 339]
false

Repeat for the following compound: [2H]C([2H])(Oc1nc(N2CCOC[C@H]3C[C@H]32)c2cnc(-c3cc(N)cc4cc(F)c(F)c(C#C)c34)c(F)c2n1)[C@@]12CCCN1C[C@H](F)C2 [Example 62]
false

Please give the result for [2H]C([2H])(Oc1nc(N2CCOC[C@H]3[C@H](Cl)[C@H]32)c2cnc(-c3cc(N)cc4ccc(F)c(C#C)c34)c(F)c2n1)[C@@]12CCCN1[C@H](C)[C@H](F)C2 [Example 340] too.
true

Now consider C#Cc1c(F)ccc2cc(N)cc(-c3ncc4c(N5CCCC[C@H]6C[C@H]65)nc(OC[C@@]56CCCN5C[C@H](F)C6)nc4c3F)c12 [Example 5] and answer again.
false

Try [2H]C([2H])(Oc1nc(N2CCCC[C@H]3[C@H](F)[C@H]32)c2cnc(-c3cc(N)cc4cc(F)c(F)c(C#C)c34)c(F)c2n1)[C@@]12CCCN1C[C@H](F)C2 [Example 16] next.
true

And [2H]C([2H])(Oc1nc(N2CCOC[C@H]3[C@@H](F)[C@H]32)c2cnc(-c3cc(N)cc4ccc(F)c(C#C)c34)c(F)c2n1)[C@@]12CCCN1C[C@H](F)C2 [Example 225] ?
false

Item: [2H]C([2H])(Oc1nc(N2CC=CC[C@@H]3[C@@H](F)[C@@H]32)c2cnc(-c3cc(N)cc4cc(F)c(F)c(C#C)c34)c(F)c2n1)[C@@]12CCCN1C[C@H](F)C2 [Example 138]
false

Another: [2H]C([2H])(Oc1nc(N2CCOC[C@@H]3[C@H](Cl)[C@@H]32)c2cnc(-c3cc(N)cc4ccc(F)c(C#C)c34)c(F)c2n1)[C@@]12CCCN1C[C@H](F)C2 [Example 250]
false

Quick one: [2H]C([2H])(Oc1nc(N2CCCC[C@@H]3[C@@H](F)[C@@H]32)c2cnc(-c3cc(N)cc4cc(F)c(F)c(C#C)c34)c(F)c2n1)[C@@]12CCCN1C[C@H](F)C2 [Example 15]
false

Try this compound too: [2H]C([2H])(Oc1nc(N2CCOC[C@H]3[C@H](Cl)[C@H]32)c2cnc(-c3cc(N)cc4ccc(F)c(C#C)c34)c(F)c2n1)[C@@]12CCCN1C[C@H](F)C2 [Example 248]
true

====

Test system: KRAS G12V dependent lung adenocarcinoma cell line, NCI-H441
Assay: Cellular pERK (Thr202/Tyr204) FRET/HTRF assay
Type: cell-based
Details: Homo sapiens, NCI-H441, cellular pERK (Thr202/Tyr204) HTRF, NCI-H441 cells
property: IC50

Query: IC50; subject: C#Cc1c(F)ccc2cc(N)cc(-c3ncc4c(N5CCOC[C@H]6[C@H](F)[C@H]65)nc(OC[C@]56C[C@@H](F)CN5C[C@@H](CNC(C)=O)C6)nc4c3F)c12 [Example 257]
50 to 500 nM

Okay, and [2H]C([2H])(F)Oc1c(F)ccc2cc(N)cc(-c3ncc4c(N5CCOC[C@H]6[C@H](F)[C@H]65)nc(OC[C@@]56CC7(CC7)CN5CCC65CC5)nc4c3F)c12 [Example 227] ?
< 50 nM

Moving on to [2H]c1cc2cc(N)cc(-c3ncc4c(N5CCOC[C@H]6[C@H](F)[C@H]65)nc(OC([2H])([2H])[C@@]56CCCN5C[C@H](F)C6)nc4c3F)c2c(C#C)c1F [Example 256]
< 50 nM

Same again, this time with [2H]C([2H])(F)Oc1c(F)ccc2cccc(-c3ncc4c(N5CCCC[C@H]6[C@H](F)[C@H]65)nc(OC[C@]56C/C(=C/F)CN5CCC65CC5)nc4c3F)c12 [Example 408]
< 50 nM

Now consider C#Cc1c(F)ccc2cc(N)cc(-c3ncc4c(N5CCOC[C@H]6[C@H](F)[C@H]65)nc(OC[C@@]56CCCN5C[C@@]5(C[C@H]5F)C6)nc4c3F)c12 (single isomer, unassigned) [Example 253] .
< 50 nM
